Tested on: Rattus norvegicus
Assay: Hypoglycemic activity by lowering blood glucose in normal rats by 20% after oral administration.
Assay type: functional
Values of ED20 strictly less than 0.05 mmol/kg map to Criterion met, and values of at least 0.05 mmol/kg map to Criterion not met.

Compound	Classification
CC/N=C(\S)NCCc1ccc(S(=O)(=O)N2CCN(C3CCCCC3)C2=N)cc1	Criterion met

Lab note: ED20 threshold 0.05 mmol/kg. Does this compound come in strictly under it? "N=C1N(C2CCCCC2)CCN1S(=O)(=O)c1ccc(CCNC(=O)c2cccnc2)cc1"
Criterion met

Answer whether the compound CC1(C(=O)NCCc2ccc(S(=O)(=O)N3CCN(C4CCCCC4)C3=N)cc2)CC=CCC1 (stereo not given) has ED20 strictly less than 0.05 mmol/kg
Criterion not met

Here's an entry: "N=C1N(C2CCCCC2)CCN1S(=O)(=O)c1ccc(CCNC(=S)NC2CCCCC2)cc1" . Is its ED20 below 0.05 mmol/kg?
Criterion not met

Is 0.05 mmol/kg strictly greater than the compound's reported ED20? compound: CC(N)C(=O)NCCc1ccc(S(=O)(=O)N2CCN(C3CCCCC3)C2=N)cc1 (stereo not given)
Criterion not met

* * *

Tested on: Rattus norvegicus
Assay: Hypoglycemic activity by lowering blood glucose in normal rats by 20% after oral administration.
Format: functional
// map ED20 to label using 1 = under 0.04 mmol/kg, 2 = from 0.04 mmol/kg up to 0.06 mmol/kg, 3 = 0.06 mmol/kg and over

Compound	Tested target	Classification
CC[S+]([O-])CC(=O)NCCc1ccc(S(=O)(=O)N2CCN(C3CCCCC3)C2=N)cc1 (stereo not given)	Rattus norvegicus	3

Which class does "N=C1N(C2CCCCC2)CCN1S(=O)(=O)c1ccc(CCNC(=S)NC2CCCC2)cc1" fall in?
2

Which category does the recorded ED20 put "COc1ccc(Cl)cc1C(=O)NCCc1ccc(S(=O)(=O)N2CCN(C3CCCCC3)C2=N)cc1" in?
3

* * *

Recorded ED20 by entry
System: Rattus norvegicus
Assay: Hypoglycemic activity by lowering blood glucose in streptozotocin-diabetic rats by 20% after oral administration.
Format: functional
# output: bare number, implied unit mmol/kg

Previously resolved entries follow.
Molecule	Readout name	Measured value
N=C1N(C2CCCCC2)CCN1S(=O)(=O)c1ccc(CCNC(=O)CNc2ccccc2)cc1	ED20	0.4
N=C1N(C2CCCCC2)CCN1S(=O)(=O)c1ccc(CCNC(=O)C2CC=CCC2)cc1 (stereo not given)	ED20	0.39
CC(N)C(=O)NCCc1ccc(S(=O)(=O)N2CCN(C3CCCCC3)C2=N)cc1 (stereo not given)	ED20	0.46
N=C1N(C2CCCCC2)CCN1S(=O)(=O)c1ccc(CCNC(=O)CCNc2ccccc2)cc1	ED20	0.8

Here's the next entry for you.
For "C=C(C(=O)NCCc1ccc(S(=O)(=O)N2CCN(C3CCCCC3)C2=N)cc1)c1ccccc1" , write its ED20.
0.96

* * *

Tested on: Rattus norvegicus
Assay: Compound evaluated for hypoglycemic activity by lowering blood glucose in streptozotocin-diabetic rats by 20% after oral administration; Inactive(less than 10% blood sugar decrease)
Type: functional
# ED20 per entry

Compound	ED20
CCCCNC(=O)NS(=O)(=O)c1ccc(C)cc1 [TOLBUTAMIDE]	> 1 mmol/kg
N=C1N(C2CCCCC2)CCN1S(=O)(=O)c1ccc(CCNC(=O)c2ccc[n+]([O-])c2)cc1	> 0.64 mmol/kg
COc1ccc(Cl)cc1C(=O)NCCc1ccc(S(=O)(=O)NC(=O)NC2CCCCC2)cc1 [GLYBURIDE]	> 0.5 mmol/kg

Answer with the recorded ED20 of N=C1N(C2CCCCC2)CCN1S(=O)(=O)c1ccc(CCNC(=O)C(N)c2ccccc2)cc1 (centres undefined) only.
> 0.18 mmol/kg
